System: Fibroblast
Assay: Multiplex assay against human fibroblast
Assay type: toxicity, cell-based
Conditions: 24 h, 10 µM, compound concentration 10 uM, replicate 2
# Population Mitotic Cells (%) >= 2% gives label 1, anything below gives label 0

- smiles-text: "COc1ccc(S(=O)(=O)N(CCO)c2ccccc2CN(C)C/C=C/c2ccc(Cl)cc2)cc1.O=P(O)(O)O"
  answer-label: "label 1"
- smiles-text: "CCn1c(=O)c(-c2ccc(-c3cncs3)cc2Cl)cc2cnc(Nc3ccc(N4CCN(C)CC4)cc3)nc21"
  answer-label: "label 1"
- smiles-text: "CN1CCN(C(=O)C(C)(C)c2ccc(C(=O)Nc3cn4cc(-c5cc(C(C)(C)C)cc(C(C)(C)C)c5)ccc4n3)cc2)CC1"
  answer-label: "label 1"
- smiles-text: "S=C(NCCCc1c[nH]cn1)NCCCN(Cc1ccc(Cl)c(Cl)c1)c1ccc(Br)cn1"
  answer-label: "label 0"
- smiles-text: "Cn1nc(C(F)(F)F)cc1-c1cnc(N2CCc3cc(S(=O)(=O)Nc4c(F)cc(Cl)cc4F)cc(N4CCCC4=O)c32)nc1"
  answer-label: "label 1"
- smiles-text: "CCN1CCN(c2ccc(Nc3cc(N(C)C(=O)Nc4c(Cl)c(OC)cc(OC)c4Cl)ncn3)cc2)CC1"
  answer-label: "label 0"
- smiles-text: "CNc1cc(Oc2cc(C(=O)Nc3cc(N4CCN(C)CC4)cc(C(F)(F)F)c3)ccc2C)ncn1"
  answer-label: "label 1"

====

Test system: U2OS
Assay: Incucyte cell viability with U2OS; note: filed as whole numbers so only -1 and 0 and 1 occur
Type: toxicity, cell-based
Details: human, 0 h, 10 µM, compound concentration 10 uM, replicate number 2, timepoint 0 hours

- molecule: "COCC(=O)NC/C=C/c1ccc2ncnc(Nc3ccc(Oc4ccc(C)nc4)c(C)c3)c2c1"
  Growth Rate: 1
- molecule: "CC(C)(C(=O)O)c1ccc(C(O)CCCN2CCC(C(O)(c3ccccc3)c3ccccc3)CC2)cc1.Cl (configuration not stated) [FEXOFENADINE HYDROCHLORIDE]"
  Growth Rate: 0
- molecule: "Cl.O=C(c1ccc(Nc2nccc(-c3cc4ccccc4s3)n2)cc1)N1CCC(N2CCCC2)CC1"
  Growth Rate: 0
- molecule: "CC[C@@H]1CN2C(=O)N(C)c3nc(-c4ccccc4)[nH]c3C2=N1.Cl"
  Growth Rate: 0
- molecule: "Cc1cc([C@@H](C)Nc2cccc(-c3cc(C)c(C(=O)N[C@@H](C)C(=O)O)c(C)c3)c2)ccc1Cl"
  Growth Rate: 1
- molecule: "Cc1cn(-c2cc(NC(=O)c3ccc(C)c(Nc4nccc(-c5cccnc5)n4)c3)cc(C(F)(F)F)c2)cn1"
  Growth Rate: 0
- molecule: "O=C1NCN(c2ccccc2)C12CCN(CC1COc3ccccc3O1)CC2 (configuration not stated)"
  Growth Rate: 0
- molecule: "CN([C@@H](Cc1ccc(OS(=O)(=O)c2cccc3cnccc23)cc1)C(=O)N1CCN(c2ccccc2)CC1)S(=O)(=O)c1cccc2cnccc12"
  Growth Rate: 0
- molecule: "O=c1ccn([C@@H]2O[C@H](COP(=O)([O-])OP(=O)([O-])O)[C@@H](O)[C@H]2O)c(=O)[nH]1.[Na+].[Na+]"
  Growth Rate: 0
- molecule: "CCCS(=O)(=O)c1nc(NC2CC2)cc(-c2ccc3c(ccn3C3CC(C)(C)NC(C)(C)C3)c2)n1"
  Growth Rate: 0
- molecule: "CC[C@H](CO)Nc1nc(NCc2ccccc2)c2ncn(C(C)C)c2n1"
  Growth Rate: 0
- molecule: "CNc1cc(Oc2cc(C(=O)Nc3cc(N4CCN(C)CC4)cc(C(F)(F)F)c3)ccc2C)ncn1"
  Growth Rate: 1
- molecule: "NC(=O)c1cccc(-c2cc(Nc3ccc(OC(F)(F)F)cc3)ncn2)c1"
  Growth Rate: 1
- molecule: "C#C[C@]1(O)CC[C@H]2[C@@H]3CCc4cc(O)ccc4[C@H]3CC[C@@]21C"
  Growth Rate: 0
- molecule: "Cc1cnc(Nc2ccc(F)cc2Cl)nc1-c1c[nH]c(C(=O)N[C@H](CO)c2cccc(Cl)c2)c1"
  Growth Rate: 1
- molecule: "CCOc1cc(C(=O)N2CCC(N3CCN(C)CC3)CC2)ccc1Nc1ncc2c(n1)N(C1CCCC1)c1ccccc1C(=O)N2C"
  Growth Rate: 0
- molecule: "Cc1ccc(-c2ccc3c(ccc4sc5c(c43)NC[C@@H](C)NC5=O)n2)cn1"
  Growth Rate: 0
